B1: TPR t1 (parent)
chain: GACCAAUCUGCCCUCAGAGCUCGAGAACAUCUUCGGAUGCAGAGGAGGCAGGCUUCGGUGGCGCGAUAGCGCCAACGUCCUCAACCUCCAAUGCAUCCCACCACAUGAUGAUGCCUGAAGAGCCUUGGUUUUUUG

Variants of: B1
Assay: polymerase ribozyme fitness, log enrichment relative to wild type (log ratio); higher = more active; in vitro selection for triplet polymerase activity
attribute_measured: polymerase ribozyme fitness (log ratio)

Form field: reported polymerase ribozyme fitness (log ratio) of A29C C62U C94A
-3.98
